Assay: Genotoxicity in Salmonella typhimurium TA1535 assessed as number of revertant by Ames spot test relative to solvent control
Assay type: toxicity
Settings: salmonella enterica subsp. enterica serovar typhimurium

Compound: CCCCCCCCCCCCCC(=O)OCC[N+](C)(C)Cc1nc(C)c2c(c1CO)COC(C)(C)O2.[Cl-]
Ratio: 0.4

Compound: CCCCCCCCCCCC(=O)OCCC[N+](C)(C)Cc1cnc(C)c2c1COC(CCC)O2.[Cl-] (stereo unspecified)
Ratio: 0.5

Compound: CCCCCCCCCCCCCC(=O)NCCC[N+](C)(C)Cc1cnc(C)c2c1COC(C)(C)O2.[Cl-]
Ratio: 0.4

Compound: CCCCCCCCCCCCCC(=O)NCC[N+](C)(C)Cc1cnc(C)c2c1COC(C)(C)O2.[Cl-]
Ratio: 0.8

Compound: CCCCCCCCCCCCCC(=O)NCC[N+](C)(C)Cc1cnc(C)c2c1COC(C)(CCC)O2.[Cl-] (stereo unspecified)
Ratio: 0.5

Compound: CCCCCCCCCCCCCC(=O)NCC[N+](C)(C)Cc1nc(C)c2c(c1CO)COC(C)(C)O2.[Cl-]
Ratio: 1.1

* * *

Test: Genotoxicity in Salmonella typhimurium TA100 assessed as number of revertant by Ames spot test relative to solvent control
Type: toxicity
Conditions: salmonella enterica subsp. enterica serovar typhimurium
Quick list: Ratio per entry.
Readout Kind: Ratio

Compound: CCCCCCCCCCCC(=O)NCC[N+](C)(C)Cc1cnc(C)c2c1COC(C)(CCC)O2.[Cl-] (centres undefined)
Readout Kind: Ratio
Readout Number: 1.1
//
Compound: CCCCCCCCCCCCCC(=O)OCC[N+](C)(C)Cc1cnc(C)c2c1COC(C)(C)O2.[Cl-]
Readout Kind: Ratio
Readout Number: 1.4
//
Compound: CCCCCCCCCCCCCC(=O)NCCC[N+](C)(C)Cc1cnc(C)c2c1COC(C)(C)O2.[Cl-]
Readout Kind: Ratio
Readout Number: 2.5
//
Compound: CCCCCCCCCCCCCC(=O)OCC[N+](C)(C)Cc1nc(C)c2c(c1CO)COC(C)(C)O2.[Cl-]
Readout Kind: Ratio
Readout Number: 2.1
